experiment: Inhibition of bovine brain calmodulin-dependent cyclic nucleotide phosphodiesterase after 30 min; set-up: species or system Bos taurus
pIC50: −log10 of the molar value.
recorded.metric: pIC50

CN(C)CCCN1c2ccccc2Sc2ccc(Cl)cc21 [CHLORPROMAZINE]; 5.01

I = CCC[C@H]1OC(=O)CCC/C=C/[C@H](O)[C@@H]1O [HERBARUMIN I]
II = CCC[C@H]1OC(=O)[C@H](O)CC/C=C/[C@H](O)[C@@H]1O [HERBARUMIN II]
Compare reported pIC50 values for I and II . Which is lower? Please indicate the selected item by its label.
I
(I: 4.85, II: 5.18)
